System: SK-MEL-2 melanoma
Assay: NCI-60 one-dose screen, 48 h
Conditions: 10 µM unless noted
Compounds without any hit were thinned out: in the full panel of roughly 83,000, 20% have a hit. Activity calls are given as the source filed them. Rule for the calls: active = growth percent below 10; inactive = the rest.
Answer with one of the outcomes active, inactive

Please review the following examples before continuing.
| compound | labelClass |
| --- | --- |
| OCC1C2C=CC(C2)C1CO (stereo not given) | inactive |
| CCN(CC)CC(C)(C)C(=O)/C=C/c1ccccc1 | inactive |

Any idea what this test logged for CN1Cc2c(cc(CN3CCCCC3)n2C)C(c2ccc(Br)cc2)C1 (stereo not given) ?
inactive

Any idea what this test logged for Cc1nc2sc(C(=O)Nc3cccc4c3OCCO4)c(N)c2cc1C(C)O (stereo not given) ?
inactive

Any idea what this test logged for C=C1CCC2C3(C)COC(c4cccc(Cl)c4)OC3CCC2(C)C1/C=C/C1=CCOC1=O (stereo not given) ?
inactive

Any idea what this test logged for COc1cccc(-c2nc3sccn3c2-c2ccnc(NCCCNS(=O)(=O)c3ccc(Cl)cc3)c2)c1 ?
inactive

Any idea what this test logged for Cc1ccc(-c2nc(/C=N/Nc3cc(C)nc4ccc(Br)cc34)c(C)o2)cc1 ?
inactive

Any idea what this test logged for C[C@H](CCC(=O)O)[C@H]1CC[C@H]2[C@@H]3CC[C@@H]4/C(=C\c5ccco5)C(=O)/C(=C\c5ccco5)C[C@]4(C)[C@H]3CC[C@]12C ?
inactive

Any idea what this test logged for O=C1c2cc3c(cc2-c2c1c1cc(Cl)c(Cl)cc1c(=O)n2C[C@H](O)CO)OCO3 ?
active

Any idea what this test logged for CCC(c1ccc(O)cc1)C(CC)c1ccc(O)c(F)c1 (stereo not given) ?
inactive

---

Tested on: KM12 colon
Test: NCI-60 one-dose screen, 48 h
Conditions: 10 µM unless noted
About 83,000 compounds went through this panel and 20% of them were active in at least one assay; those are over-represented in the sample as a whole. Activity calls are given as the source filed them. How the source made its calls: active means growth percent below 10; inactive means the rest.
Answer with one of the outcomes active, inactive

Please review the following examples before continuing.
| compound | labelClass |
| --- | --- |
| Cc1cc2c(cc1C)NC1=C(N2)OC(c2c3ccccc3cc3ccccc23)C1=O (configuration not stated) | active |
| Cn1cc(-c2ccc(-c3cn(C)c4ncccc34)[nH]2)c2cccnc21 | inactive |
| CCCCNc1ccc2c3c1cccc3c(=O)n1c3ccccc3nc21 | inactive |
| CC(=O)/C(=C/c1cccc(Cl)c1)C(=O)c1ccccc1 | inactive |
| COc1ccc(-c2nn(-c3ccccc3)cc2/C=C/C(=O)OCc2cn(-c3ccc(F)c(Cl)c3)nn2)cc1 | inactive |

Any idea what this test logged for Fc1ccc(Cc2ccc(F)cc2)cc1 ?
inactive

Any idea what this test logged for CCOC(=O)c1ccc2c(c1)nc(/C=C/c1ccc(Cl)cc1)n2-c1cc(C(C)(C)C)[nH]n1 ?
inactive

Any idea what this test logged for COC(=O)C12C3C(=O)N(c4ccc(OC)cc4)C(=O)C3C(c3cn(-c4ccccc4)nc3C)N1[C@H](c1cn(-c3ccccc3)nc1C)[C@@H]1C(=O)N(c3ccc(OC)cc3)C(=O)[C@@H]12 (some centres not stated) ?
inactive

Any idea what this test logged for CCCCCCCCCCCCCC(=O)C(C)N (configuration not stated) ?
inactive

Any idea what this test logged for COc1ccc(OCC(=O)Nc2ccc(-c3nc4ccccc4s3)cc2C)cc1 ?
inactive

Any idea what this test logged for CCOC(=O)c1c2c(n3ccc(NC(=O)CCN4CCCCC4)cc13)C(=O)c1ncccc1C2=O ?
active
